# Test name: NCI Yeast Anticancer Drug Screen. Data for the mec2-1 strain (AID 157)
# Experimental conditions: S. cerevisiae mec2-1 strain, at 50.0 µM, active compounds read high
Compounds without any hit were thinned out: in the full panel of roughly 79,000, 15% have a hit.
Endpoint: growth inhibition (%)
Provide the reading as a plain figure in %.

c1csc(C(NC2=NCCO2)C2CC2)c1 (stereo not drawn): -11.2
COc1ccc2cc1Oc1ccc(cc1)CC1c3cc(c(OC)cc3CCN1C)Oc1c(O)c(OC)cc3c1C(C2)N(C)CC3 (stereo not drawn): -10.4
CC(N)(CCBr)C(=O)O (stereo not drawn): 5.2

For Cc1ccc2c(c1)SCc1c-2[nH]c2ccccc12 , what is its reported growth inhibition?
95.3

Given O=C(O)CCNc1ccccc1C(=O)O , state its recorded growth inhibition.
-15.2

Using the record for CCOC(=O)C(NC(=S)Cc1ccccc1)C(=O)OCC , report its growth inhibition.
-2.85

For the compound O=C1CCCC/C(=C/c2ccccc2)N1 , what growth inhibition is on record?
-7.2

Given the compound Cc1cn(CCCn2cnc3c(=O)[nH]cnc32)c(=O)[nH]c1=O , what is its reported growth inhibition?
-22.1

* * *

# Test name: NCI Yeast Anticancer Drug Screen. Data for the mec2-1 strain (AID 157)
# Experimental conditions: S. cerevisiae mec2-1 strain, at 50.0 µM, active compounds read high
This is part of a sample that, as a whole, favours compounds with a hit. Of some 79,000 tested, about 15% had one in any assay.
Reported growth inhibition values for the following molecules.
Provide the reading as a plain figure in %.

Solved cases below.
CC(=O)Nc1ccc(C=O)cc1[N+](=O)[O-]: 33.3
CSc1c2c([nH]c(=O)c1C#N)-c1ccccc1CC2: -1.4
COc1ccc(C)cc1Sc1ccc(C)cc1[N+](=O)[O-]: -6.7
Cc1cc(S(=O)(=O)O)c(NC(=O)C(=O)C2C=CCS2(=O)=O)cc1Cl (stereo not drawn): -20.8
CC(C)N(C(=O)c1cccc2ccccc12)C(C)C: 6.95
CC(C)NC(=O)OCc1c(COC(=O)NC(C)C)c(S(=O)c2ccccc2)n2c1CCC2 (stereo not drawn): 5.3
CNCC(=O)Nc1ccc2c(c1)C(=O)c1ccc(NC(=O)CNC)cc1C2=O: 13.9
Nc1ccc(Cc2ccc(N)c(Br)c2)cc1Br: 13.9
CN1N=C(c2ccccc2O)/C(=C/c2c(-c3ccccc3O)[nH]n(C)c2=O)C1=O: -0.55
O=C(c1ccccc1)c1cc(Br)c2cccc3c2c1CC3: -7.6

Which growth inhibition value is on record for CC(C)C(=O)OCC1OC(n2cnc3c(=S)nc[nH]c32)C(OC(=O)C(C)C)C1OC(=O)C(C)C (stereo not drawn) ?
2.2

For the molecule shown here, Cc1ccc(C(=O)CCN2CCOCC2)c(C)c1 , give the reported growth inhibition.
5.55

* * *

Item-by-item account of growth inhibition
# Test name: NCI Yeast Anticancer Drug Screen. Data for the rad50 strain (AID 155);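 note: 0% = growth of vehicle-only cultures of the same strain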
# Experimental conditions: S. cerevisiae rad50 strain growth inhibition; at 50.0 µM; active compounds read high
This is part of a sample that, as a whole, favours compounds with a hit. Of some 79,000 tested, about 15% had one in any assay.
Value expressed in %; do not type the unit.

Worked examples follow.
CCCCCCP(=O)(CCCCCC)C1CCCCC1: 98.1
C[CH2][Sn]([CH2]C)([O]C(=O)c1ccc2c(c1)OC(C)(C)O2)[O]C(=O)c1ccc2c(c1)OC(C)(C)O2: 51.3
O=C(/C=C(/Nc1ccccc1)c1ccccc1)c1ccccc1: 7.3
CCOCCC(=O)OCCC(C)OC (configuration not stated): 4.95
CCCCNC(=O)OCC: -34.5
CC(=O)CC(=O)C(C)C.[Cu+2]: -7.6

I am curious: what growth inhibition value has been reported for NC(=O)N=P(c1ccccc1)(c1ccccc1)c1ccccc1 ?
-9.9

* * *

growth inhibition by entry:
# Test name: NCI Yeast Anticancer Drug Screen. Data for the rad50 strain (AID 155);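 note: 0% = growth of vehicle-only cultures of the same strain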
# Experimental conditions: S. cerevisiae rad50 strain growth inhibition; at 50.0 µM; active compounds read high
The panel holds about 79,000 compounds, 15% with a hit somewhere; the sample as a whole holds those more often.
Report only the number, with the unit % understood.

CCOC(=O)c1c(C#N)c2cnn(-c3ccccc3)c2n2cccc12: 14.1
CC(Nc1cnccn1)Nc1cnccn1: -3.1
CC(=O)NNC(=S)N/C=C(\C#N)C(=O)c1ccc2ccccc2c1: -59.4
COc1ccc(CC2COC(=O)C2Cc2ccc(OC)c(OC)c2)cc1OC (stereo not given): 6.35
O=[N+]([O-])c1ccc2[nH]ccc2c1: 8.75

Query (compound): CCCCCCCCC(=O)c1c(OC)oc(/C=N/NC(N)=S)cc1=O ; field requested: growth inhibition
83.5

Requested field: growth inhibition. Item: COc1ccc2c(C)cc(N/N=C(\C)C=O)nc2c1
19.9

Requested read-out: growth inhibition. Entry: C/C(=C\c1ccccc1)C(=O)c1ccccc1
-0.45

Return reported growth inhibition; argument: CC(=O)Nc1ccc(S(=O)(=O)N/N=C/C(=O)O)cc1
-15.6

Requested field: growth inhibition. Item: CCC1(CC)C(=O)OC(=O)C1(CC)CC
-6.05

* * *

# Test name: NCI Yeast Anticancer Drug Screen. Data for the sgs1 mgt1 strain (AID 161);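 note: 0% = growth of cultures given vehicle only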
# Experimental conditions: S. cerevisiae sgs1 mgt1 strain, at 50.0 µM
# Procedure: Growth inhibition of yeast strains with defined genetic alterations is measured as a screen for potential anti-cancer activity. Selected strains with alterations in DNA damage repair or cell cycle control were exposed to compounds and growth inhibition was measured relative to vehicle treated controls. The strain used in this assay is sgs1 mgt1
Compounds without any hit were thinned out: in the full panel of roughly 79,000, 15% have a hit. Activity calls are given as the source filed them. No stated cut-off is given here; in the data, active means growth inhibition above about 70%; inactive means the rest.
Just give me one of these, please: 1 (yes) for active, 0 (no) for inactive

Here are 2 compounds together with their reported answers.
COc1ccc(CC(=O)c2c(OC)c3c(c4c2OC(C)(C)CC4)OC(C)(C)CC3)cc1OC: 0 (no)
CCOc1cccc(/C=N/N=C2\C(=O)Nc3c(Cl)cc(Cl)cc32)c1O: 0 (no)

Please state the recorded outcome for this compound: C/C=C(\C)c1cc(=O)c2c(C)cc3c(c2o1)C(=O)c1c(OC)cccc1C3=O
0 (no)

Assay outcome for CNc1ccc(Oc2ccccc2)cc1[N+](=O)[O-] : what was it?
0 (no)

Kindly provide the recorded test outcome for the following compound: O=C=Nc1ccc(Cc2ccc(N=C=O)cc2)cc1
0 (no)

# fetch the recorded call for COC1(OC)C(c2ccco2)C(C#N)(C#N)C1(OC)OC (configuration not stated) here
0 (no)

In this assay, the call recorded for O=C(Nc1nc2ccccc2[nH]1)C(F)(F)F was what?
0 (no)

Per the records of this test, what outcome belongs to CC/C(C)=N/NS(=O)(=O)c1ccc(C)cc1 ?
0 (no)

Check the results log: what was the call for NC(=O)c1nsc(-c2ccc([N+](=O)[O-])cc2)c1N ?
0 (no)

// outcome(item) with item = CC1(c2ccccc2)N=C(C(N)=O)c2[nH]cnc2N1 (configuration not stated)
0 (no)

Called result for O=C1OC(c2ccccc2)=CC1(Cc1ccccc1)Cc1ccccc1
0 (no)

What classification did c1csc(-c2cc(-c3ccsc3)c(-c3cccs3)s2)c1 end up with in this test?
0 (no)

Record request — test call for CC(=O)N1C(OC(C)C)CC(C)N1c1ccccc1 (configuration not stated)
0 (no)

Recorded test call requested for COc1cc2nncc(SCc3ccc(Cl)cc3Cl)c2cc1OC
0 (no)

Any idea what this test logged for O=[N+]([O-])c1ccc2[nH]c3nc4ncccc4nc3c2c1 ?
0 (no)

Per the assay record, what outcome was assigned to CCCCCCCC/C=C\CCCCCCCC(=O)NCCN1CCCCC1 ?
1 (yes)

* * *

# Test name: NCI Yeast Anticancer Drug Screen. Data for the rad50 strain (AID 155);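 note: 0% = growth of vehicle-only cultures of the same strain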
# Experimental conditions: S. cerevisiae rad50 strain growth inhibition; at 50.0 µM; active compounds read high
# Protocol: Growth inhibition of yeast strains with defined genetic alterations is measured as a screen for potential anti-cancer activity. Selected strains with alterations in DNA damage repair or cell cycle control were exposed to compounds and growth inhibition was measured relative to vehicle treated controls. The strain used in this assay is rad50
About 79,000 compounds went through this panel and 15% of them were active in at least one assay; those are over-represented in the sample as a whole.
Classify by measured growth inhibition: TRUE if it is equal to or exceeds 6%, FALSE if it is smaller.

O=[N+]([O-])c1ccc(Cl)c2cccnc12: TRUE
CCCC(=O)OCc1ccccc1: TRUE
COC(=O)CCC(N)C(=O)NC(Cc1ccccc1)C(=O)NC(C)C(=O)NC1C(O)OC(CO)C(O)C1O (stereo unspecified): FALSE
O=S(=O)(Cc1c(Cl)c(Cl)c(Cl)c(Cl)c1Cl)c1ccc(Cl)cc1: FALSE

Okay, next one:
Item COC(=O)[C@]1(NC(=O)c2ccccc2)C[C@H]1C=O with growth inhibition of 6% or above?
TRUE

These data points were gathered from PubChem BioAssay (NCI).
